// reported Kd per item
# measured.on: CaM (Bos taurus, UniProt P62157)
# Construct: made in house; host or cells: E. coli BL21 (DE3)
# experiment.notes: Pull-down assay with immobilized protein and LSM libraries
# Assay type: binding, bovine
# experimental.setup: H12 library; 1:2 stoichiometry assumed; read-out: Surface mapping KD (apparent)
# Protocol: Pull-down assays with immobilized test proteins and foldameric LSM libraries were carried out. Proteins were equilibrated with LSM probes, and equilibrium bound fractions (FB) were determined from the unbound fractions measured by HPLC-MS methods. Hits were corrected with background binding of the resin. […] MS data analysis. […] Using these processing setups, all raw data files were reprocessed together and analyzed. […]
Give the number; µM is assumed, so skip it.

Answered examples (3):
[
  {
    "molecule": "CC[C@H](C)[C@@H](CC(=O)N[C@H]1CCC[C@@H]1C(=O)N[C@H]1CCC[C@@H]1C(N)=O)NC(=O)[C@H]1CCC[C@@H]1NC(=O)[C@H]1CCC[C@@H]1NC(=O)C[C@H](Cc1ccccc1)NC(=O)[C@H]1CCC[C@@H]1NC(=O)[C@H]1CCC[C@@H]1N",
    "measured.on": "CaM (Bos taurus, UniProt P62157)",
    "units.of.measure": "µM",
    "Kd": 15
  },
  {
    "molecule": "N=C(N)NCCC[C@@H](CC(=O)N[C@H]1CCC[C@@H]1C(=O)N[C@H]1CCC[C@@H]1C(=O)N[C@H](CC(=O)N[C@H]1CCC[C@@H]1C(=O)N[C@H]1CCC[C@@H]1C(N)=O)Cc1ccccc1)NC(=O)[C@H]1CCC[C@@H]1NC(=O)[C@H]1CCC[C@@H]1N",
    "measured.on": "CaM (Bos taurus, UniProt P62157)",
    "units.of.measure": "µM",
    "Kd": 96
  },
  {
    "molecule": "CC(C)C[C@@H](CC(=O)N[C@H]1CCC[C@@H]1C(=O)N[C@H]1CCC[C@@H]1C(=O)N[C@H](CC(=O)N[C@H]1CCC[C@@H]1C(=O)N[C@H]1CCC[C@@H]1C(N)=O)C(C)C)NC(=O)[C@H]1CCC[C@@H]1NC(=O)[C@H]1CCC[C@@H]1N",
    "measured.on": "CaM (Bos taurus, UniProt P62157)",
    "units.of.measure": "µM",
    "Kd": 270
  }
]

Now look at this entry.
So what does the record say about Kd for NC(=O)C[C@@H](CC(=O)N[C@H]1CCC[C@@H]1C(=O)N[C@H]1CCC[C@@H]1C(=O)N[C@H](CC(=O)N[C@H]1CCC[C@@H]1C(=O)N[C@H]1CCC[C@@H]1C(N)=O)Cc1c[nH]c2ccccc12)NC(=O)[C@H]1CCC[C@@H]1NC(=O)[C@H]1CCC[C@@H]1N ?
63

Data provenance is paper PMC8162404.
